# ASSAY SYSTEM: 生物素化的SARS-CoV-2 RBD (SARS-CoV-2, UniProt P0DTC2 319-541)
# EXPERIMENTAL DETAILS: ELISA screen, Fab culture supernatant on streptavidin-captured biotinylated RBD

BINDER	binding result
CB6-28 (轻链突变库克隆) (Fab, V domains shown, also called CB6-28-VL; CB6-28-LC) VH: EVQLVESGGGLVQPGGSLRLSCAASGFTVSSNYMSWVRQAPGKGLEWVSVIYSGGSTFYADSVKGRFTISRDNSMNTLFLQMNSLRAEDTAVYYCARVLPMYGDYLDYWGQGTLVTVSS VL: DIVMTQSPSSLSASVGDRVTITCRASQDIVSYLNWYQQKPGKAPKLLIYAASSLQSGVPSRFSGSGSGTDFTLTISSLQPEDFATYYCQQSASPTPEYTFGQGTKLEIK	binds
CB6-39 (轻链突变库克隆) (Fab, V domains shown, also called CB6-39-VL; CB6-39-LC) VH: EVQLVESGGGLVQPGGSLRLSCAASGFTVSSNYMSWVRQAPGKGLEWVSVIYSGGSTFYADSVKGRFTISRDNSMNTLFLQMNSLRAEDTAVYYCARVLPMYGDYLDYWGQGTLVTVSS VL: DIVMTQSPSSLSASVGDRVTITCRASQPINQYLNWYQQKPGKAPKLLIYAASSLQSGVPSRFSGSGSGTDFTLTISSLQPEDFATYYCQQSKSSLPEYTFGQGTKLEIK	binds
CB6-22 (轻链突变库克隆) (Fab, V domains shown, also called CB6-22-VL; CB6-22-LC) VH: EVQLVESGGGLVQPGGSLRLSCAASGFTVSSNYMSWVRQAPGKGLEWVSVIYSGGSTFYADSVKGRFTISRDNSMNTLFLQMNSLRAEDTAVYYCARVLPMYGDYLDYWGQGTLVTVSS VL: DIVMTQSPSSLSASVGDRVTITCRASQRILPYLNWYQQKPGKAPKLLIYAASSLQSGVPSRFSGSGSGTDFTLTISSLQPEDFATYYCQQSSSATPEYTFGQGTKLEIK	binds
